Assignment: determine reported NA-uptake, 10 μM, % inhibition for the given compounds.
Molecular target: NA transporter (Rattus norvegicus)
Construct: synaptosomes from rat brain regions were freshly isolated; from tissue; host or cells: P2 synaptosome fraction from hypothalamus of male rat brain
Experiment: Noradrenalin uptake inhibition (NA-uptake) in synaptosomes
Assay type: biochemical
Details: rat hypothalamus synaptosomes
Numbers only, in %.

[
  {
    "compound": "CN(C)S(=O)(=O)N1CCC2(CC1)CC(C(=O)NC1CCCC1OCc1ccccc1)=NO2 (centres unmarked)",
    "recordedResult": 62
  }
]

// each listed compound needs a value for NA-uptake, 10 μM, % inhibition
1. O=C(C1=NOC2(CCN(S(=O)(=O)c3cccc(C(F)(F)F)c3)CC2)C1)N1CCN(c2cc(C(F)(F)F)ccn2)CC1
2. Cc1cccc(N2CCN(C(=O)C3=NOC4(CCN(S(=O)(=O)c5cccs5)CC4)C3)CC2C)c1 (centres unmarked)
3. Cc1ccccc1N1CCN(C(=O)C2=NOC3(CCN(S(=O)(=O)Cc4ccccc4)CC3)C2)CC1
4. O=C(NC1CCCC1OCc1ccccc1)C1=NOC2(CCN(S(=O)(=O)c3ccc(Cl)s3)CC2)C1 (centres unmarked)

1. 43
2. 66
3. 48
4. 74

---

Target: 5HT-uptake (Rattus norvegicus)
Construct: synaptosomes from rat brain regions were freshly isolated; from tissue; host or cells: P2 synaptosome fraction from rat brain regions
Sequence (P31652 whole entry): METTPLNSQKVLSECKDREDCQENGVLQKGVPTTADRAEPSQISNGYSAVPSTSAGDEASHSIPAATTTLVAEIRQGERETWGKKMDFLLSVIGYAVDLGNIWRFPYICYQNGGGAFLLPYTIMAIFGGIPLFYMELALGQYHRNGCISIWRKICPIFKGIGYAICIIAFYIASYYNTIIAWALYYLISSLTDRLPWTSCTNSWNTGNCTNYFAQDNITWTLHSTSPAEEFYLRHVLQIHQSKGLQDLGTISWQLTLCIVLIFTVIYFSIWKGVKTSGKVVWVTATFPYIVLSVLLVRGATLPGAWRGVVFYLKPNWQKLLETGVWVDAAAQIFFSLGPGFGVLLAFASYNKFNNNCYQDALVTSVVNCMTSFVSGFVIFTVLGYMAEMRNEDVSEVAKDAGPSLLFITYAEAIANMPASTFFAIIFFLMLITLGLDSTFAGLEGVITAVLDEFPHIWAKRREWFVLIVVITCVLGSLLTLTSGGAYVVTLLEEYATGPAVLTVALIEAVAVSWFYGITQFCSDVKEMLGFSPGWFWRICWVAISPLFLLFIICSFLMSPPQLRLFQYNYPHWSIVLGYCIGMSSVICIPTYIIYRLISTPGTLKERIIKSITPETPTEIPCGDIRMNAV
Assay: Serotonin uptake inhibition (5HT uptake) in synaptosomes
Assay type: biochemical
Conditions: rat brain synaptosomes
reportedMetric: inhibition at 10 µM
Report field: quantity (unit follows the number).

A selection of reference data follows.
[
  {
    "compound": "O=C(NCc1cccc(F)c1)C1=NOC2(CCN(S(=O)(=O)c3cccs3)CC2)C1 [Example 24]",
    "inhibition at 10 µM": "40%"
  },
  {
    "compound": "O=C(NC1CCN(Cc2ccc(C(F)(F)F)cc2)C1)C1=NOC2(CCN(S(=O)(=O)c3cccs3)CC2)C1 (stereo not shown) [Example 26]",
    "inhibition at 10 µM": "65%"
  },
  {
    "compound": "COc1ccc(S(=O)(=O)N2CCC3(CC2)CC(C(=O)NC(CC(C)C)C(=O)OC(C)(C)C)=NO3)cc1 (stereo not shown) [Example 147]",
    "inhibition at 10 µM": "67%"
  },
  {
    "compound": "O=C(NC1CCCCCCC1)C1=NOC2(CCN(S(=O)(=O)c3ccc(OC(F)(F)F)cc3)CC2)C1 [Example 86]",
    "inhibition at 10 µM": "46%"
  },
  {
    "compound": "COc1ccc(CNC(=O)C2=NOC3(CCN(S(=O)(=O)c4cc(Cl)ccc4Cl)CC3)C2)cc1OC [Example 68]",
    "inhibition at 10 µM": "52%"
  },
  {
    "compound": "CC(NC(=O)C1=NOC2(CCN(S(=O)(=O)c3cc(Cl)ccc3Cl)CC2)C1)C(=O)Nc1ccc2ccccc2c1 (stereo not shown) [Example 44]",
    "inhibition at 10 µM": "80%"
  },
  {
    "compound": "O=C(NCCc1ccc(Cl)cc1)C1=NOC2(CCN(S(=O)(=O)c3cccs3)CC2)C1 [Example 60]",
    "inhibition at 10 µM": "65%"
  },
  {
    "compound": "O=C(NCC1CC1)C1=NOC2(CCN(S(=O)(=O)c3cccc(C(F)(F)F)c3)CC2)C1 [Example 94]",
    "inhibition at 10 µM": "57%"
  },
  {
    "compound": "COc1cccc(CNC(=O)C2=NOC3(CCN(S(=O)(=O)c4ccc(OC(F)(F)F)cc4)CC3)C2)c1 [Example 162]",
    "inhibition at 10 µM": "40%"
  },
  {
    "compound": "Cc1ccccc1N1CCN(C(=O)C2=NOC3(CCN(S(=O)(=O)c4cccs4)CC3)C2)CC1 [Example 27]",
    "inhibition at 10 µM": "49%"
  }
]

Items follow; give inhibition at 10 µM for each.
1. CCOC(=O)N1CCC(NC(=O)C2=NOC3(CCN(C(=O)C4CC4c4ccccc4)CC3)C2)CC1 (stereo not shown) [Example 55]
2. CN(Cc1cccnc1)C(=O)C1=NOC2(CCN(S(=O)(=O)c3cccc(C(F)(F)F)c3)CC2)C1 [Example 101]
3. O=C(NCc1cc(F)ccc1F)C1=NOC2(CCN(S(=O)(=O)c3ccc(Cl)s3)CC2)C1 [Example 49]
4. CCOc1ccccc1CNC(=O)C1=NOC2(CCN(S(=O)(=O)Cc3ccccc3)CC2)C1 [Example 51]
5. CN(C)S(=O)(=O)N1CCC2(CC1)CC(C(=O)NCc1ccc(F)cc1F)=NO2 [Example 77]
6. Cc1ccc(C(=O)N2CCC3(CC2)CC(C(=O)NCC2CC2)=NO3)c(F)c1F [Example 159]

1: 65%; 2: 46%; 3: 50%; 4: 49%; 5: 41%; 6: 40%

---

Biological target: NA transporter (Rattus norvegicus, UniProt Q9WTR4)
Construct: synaptosomes from rat brain regions were freshly isolated; from tissue; host or cells: P2 synaptosome fraction from hypothalamus of male rat brain
Sequence (Q9WTR4 1-597): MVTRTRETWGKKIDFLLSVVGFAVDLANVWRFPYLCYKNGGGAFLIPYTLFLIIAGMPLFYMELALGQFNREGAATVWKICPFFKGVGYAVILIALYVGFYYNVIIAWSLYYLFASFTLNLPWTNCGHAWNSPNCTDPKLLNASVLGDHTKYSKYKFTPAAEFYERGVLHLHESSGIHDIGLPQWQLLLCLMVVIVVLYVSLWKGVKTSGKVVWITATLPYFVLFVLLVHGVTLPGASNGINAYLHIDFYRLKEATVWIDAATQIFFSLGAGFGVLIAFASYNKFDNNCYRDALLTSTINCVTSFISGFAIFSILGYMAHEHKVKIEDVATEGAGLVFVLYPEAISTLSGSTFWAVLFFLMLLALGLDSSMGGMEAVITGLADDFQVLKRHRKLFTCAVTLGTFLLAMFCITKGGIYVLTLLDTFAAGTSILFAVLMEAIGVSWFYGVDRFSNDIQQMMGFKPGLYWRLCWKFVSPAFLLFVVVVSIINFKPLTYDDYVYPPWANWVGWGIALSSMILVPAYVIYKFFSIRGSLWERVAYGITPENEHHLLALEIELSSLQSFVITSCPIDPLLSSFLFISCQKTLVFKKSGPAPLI
Test: Noradrenalin uptake inhibition (NA-uptake) in synaptosomes
Type: biochemical
Details: rat hypothalamus synaptosomes
Give inhibition at 10 µM for every item shown.
One number for each entry, in %.

[
  {
    "compound": "O=C(NCc1cccs1)C1=NOC2(CCN(C(=O)c3cccc(Cl)c3F)CC2)C1",
    "inhibition at 10 µM / %": 61
  },
  {
    "compound": "CN(C)S(=O)(=O)N1CCC2(CC1)CC(C(=O)NCCc1ccccc1)=NO2",
    "inhibition at 10 µM / %": 50
  },
  {
    "compound": "Cc1ccc(F)c(C(=O)N2CCC3(CC2)CC(C(=O)NCc2cccs2)=NO3)c1F",
    "inhibition at 10 µM / %": 43
  },
  {
    "compound": "CC(NC(=O)C1=NOC2(CCN(S(=O)(=O)c3cccs3)CC2)C1)c1ccccc1 (centres unmarked)",
    "inhibition at 10 µM / %": 48
  },
  {
    "compound": "O=C(NC1CCCC1OCc1ccccc1)C1=NOC2(CCN(S(=O)(=O)c3cccc(C(F)(F)F)c3)CC2)C1 (centres unmarked)",
    "inhibition at 10 µM / %": 58
  },
  {
    "compound": "COc1ccc(Br)cc1S(=O)(=O)N1CCC2(CC1)CC(C(=O)NC1CCCC1)=NO2",
    "inhibition at 10 µM / %": 60
  },
  {
    "compound": "Cc1ccc(F)cc1S(=O)(=O)N1CCC2(CC1)CC(C(=O)NCCN(C)C)=NO2",
    "inhibition at 10 µM / %": 52
  },
  {
    "compound": "O=C(NCc1ccccc1F)C1=NOC2(CCN(S(=O)(=O)c3ccc(F)cc3)CC2)C1",
    "inhibition at 10 µM / %": 50
  },
  {
    "compound": "Cc1ccc(C(C)NC(=O)C2=NOC3(CCN(S(=O)(=O)c4cccs4)CC3)C2)cc1 (centres unmarked)",
    "inhibition at 10 µM / %": 49
  },
  {
    "compound": "CC(C)CC(NC(=O)C1=NOC2(CCN(S(=O)(=O)c3cccs3)CC2)C1)C(=O)OC(C)(C)C (centres unmarked)",
    "inhibition at 10 µM / %": 46
  }
]

Batch request: inhibition at 10 µM for each of the following compounds.
1. O=C(NCc1cccs1)C1=NOC2(CCN(S(=O)(=O)c3ccc(Cl)cc3)CC2)C1
2. CC(Cc1ccc(Cl)cc1)NC(=O)C1=NOC2(CCN(S(=O)(=O)c3ccc(Cl)s3)CC2)C1 (centres unmarked)
3. CC(Oc1ccccc1)C(=O)N1CCC2(CC1)CC(C(=O)NCC1CC1)=NO2 (centres unmarked)

51
79
42

---

Target: NA transporter (Rattus norvegicus, UniProt Q9WTR4)
Construct: synaptosomes from rat brain regions were freshly isolated; from tissue; host or cells: P2 synaptosome fraction from hypothalamus of male rat brain
Assay: Noradrenalin uptake inhibition (NA-uptake) in synaptosomes
Type: biochemical
Conditions: rat hypothalamus synaptosomes
For each entry below, report its inhibition at 10 µM value.
Numbers only, in %.

# example entries with known answers
[
  {
    "compound": "O=C(NCc1cccs1)C1=NOC2(CCN(S(=O)(=O)c3ccccc3Cl)CC2)C1",
    "unitText": "%",
    "inhibition at 10 µM": 60
  },
  {
    "compound": "O=C(NC1CCCC1OCc1ccccc1)C1=NOC2(CCN(S(=O)(=O)c3cccs3)CC2)C1 (stereo not shown)",
    "unitText": "%",
    "inhibition at 10 µM": 92
  },
  {
    "compound": "CC(C)CC(NC(=O)C1=NOC2(CCN(S(=O)(=O)c3cccc(C(F)(F)F)c3)CC2)C1)C(=O)OC(C)(C)C (stereo not shown)",
    "unitText": "%",
    "inhibition at 10 µM": 45
  }
]

// moving on: another record for inhibition at 10 µM
Provide measured inhibition at 10 µM value, entry: CN(C)CCNC(=O)C1=NOC2(CCN(S(=O)(=O)c3ccccc3)CC2)C1
43
